system: HLA-B*27:05
assay-summary: IEDB peptide-MHC binding, purified MHC/direct/fluorescence; filed as Kd, often an IC50 or EC50 that approximates it; bounds were set here for any values at or beyond the usual limits of such assays
experimental-setup: source organism: Pseudomonas putida
pKd: −log10 of the molar value.

>  <residue-codes>
RVWRGEQGK

>  <system>
HLA-B*27:05

>  <pKd>
5.12

$$$$

---

Form field: log10 Kd (one value per entry).
system: HLA-A*68:01
assay-summary: IEDB peptide-MHC binding, purified MHC/competitive/radioactivity; filed as Kd, often an IC50 or EC50 that approximates it; bounds were set here for any values at or beyond the usual limits of such assays
experimental-setup: source organism: Vaccinia virus WR
measure: log10 Kd (log10 of the value in nM)

>  <residue-codes>
YLSDSDNIK

>  <log10 Kd>
3.05

$$$$
>  <residue-codes>
KTNDINVRR

>  <log10 Kd>
1.08

$$$$
>  <residue-codes>
IAEYIAGLK

>  <log10 Kd>
0.10

$$$$
>  <residue-codes>
NTKSDIDVIK

>  <log10 Kd>
-0.26

$$$$
>  <residue-codes>
NSTCYVFGLY

>  <log10 Kd>
0.95

$$$$
>  <residue-codes>
KSIENKHQRR

>  <log10 Kd>
4.05

$$$$
>  <residue-codes>
IQLDEKSSIK

>  <log10 Kd>
2.74

$$$$
>  <residue-codes>
TVHKLTQDEK

>  <log10 Kd>
2.34

$$$$
>  <residue-codes>
TSCSKNEAEK

>  <log10 Kd>
2.59

$$$$
>  <residue-codes>
DTIVSRSSR

>  <log10 Kd>
0.76

$$$$
>  <residue-codes>
LIIYYQLAGY

>  <log10 Kd>
3.90

$$$$
>  <residue-codes>
LIDTTSRELK

>  <log10 Kd>
2.64

$$$$
>  <residue-codes>
KQLCYCPASK

>  <log10 Kd>
4.05

$$$$
>  <residue-codes>
TVVRDFENY

>  <log10 Kd>
3.04

$$$$
>  <residue-codes>
KMLTFDVFR

>  <log10 Kd>
1.89

$$$$
>  <residue-codes>
LLTDTIESAK

>  <log10 Kd>
2.82

$$$$
>  <residue-codes>
LTDTIESAK

>  <log10 Kd>
1.41

$$$$
>  <residue-codes>
TIANSNIIK

>  <log10 Kd>
1.86

$$$$
>  <residue-codes>
YIAVANCVR

>  <log10 Kd>
0.83

$$$$
>  <residue-codes>
LSCIRNASK

>  <log10 Kd>
2.44

$$$$
>  <residue-codes>
ILNKIVQLPK

>  <log10 Kd>
3.92

$$$$
>  <residue-codes>
PIGMQFDKVY

>  <log10 Kd>
4.11

$$$$
>  <residue-codes>
LVKESMASLK

>  <log10 Kd>
-0.36

$$$$
>  <residue-codes>
QMAGVEVRY

>  <log10 Kd>
3.87

$$$$
>  <residue-codes>
LSSIKSKSR

>  <log10 Kd>
2.79

$$$$
>  <residue-codes>
LVTRKCPQK

>  <log10 Kd>
1.29

$$$$
>  <residue-codes>
LLMHLVSLY

>  <log10 Kd>
1.00

$$$$
>  <residue-codes>
ISQFSYKELY

>  <log10 Kd>
3.89

$$$$
>  <residue-codes>
EAVYGNIKHK

>  <log10 Kd>
1.79

$$$$
>  <residue-codes>
VIDKAKVMGR

>  <log10 Kd>
2.52

$$$$
>  <residue-codes>
SAGAGVLDK

>  <log10 Kd>
3.53

$$$$
>  <residue-codes>
ETITEKTFK

>  <log10 Kd>
1.08

$$$$
>  <residue-codes>
ELTTVFIKY

>  <log10 Kd>
2.93

$$$$
>  <residue-codes>
NSTTDAEACY

>  <log10 Kd>
3.87

$$$$
>  <residue-codes>
KTYIDVNEEY

>  <log10 Kd>
4.02

$$$$
>  <residue-codes>
NIKPSKENR

>  <log10 Kd>
1.02

$$$$
>  <residue-codes>
FSGKSTELIR

>  <log10 Kd>
2.94

$$$$

---

system: HLA-B*27:03
assay-summary: IEDB peptide-MHC binding, purified MHC/direct/fluorescence; filed as Kd, often an IC50 or EC50 that approximates it; bounds were set here for any values at or beyond the usual limits of such assays
experimental-setup: source organism: Giardia lamblia ATCC 50803
measure: Kd

>  <residue-codes>
VLLISDPGL

>  <measured>
≥ 20 µM

$$$$

---

system: HLA-B*48:01
assay-summary: IEDB peptide-MHC binding, purified MHC/direct/fluorescence; filed as Kd, often an IC50 or EC50 that approximates it; bounds were set here for any values at or beyond the usual limits of such assays
experimental-setup: source organism: Brucella abortus 2308

>  <residue-codes>
IEVKFHPIL

>  <value-unit>
nM

>  <Kd>
534

$$$$

---

system: HLA-A*01:01
assay-summary: IEDB peptide-MHC binding, purified MHC/direct/fluorescence; filed as Kd, often an IC50 or EC50 that approximates it; bounds were set here for any values at or beyond the usual limits of such assays
experimental-setup: source organism: Marburg virus - Musoke, Kenya, 1980

>  <residue-codes>
YHLGGIEGL

>  <Kd>
≥ 20 µM

$$$$

---

system: HLA-A*02:01
assay-summary: IEDB peptide-MHC binding, purified MHC/competitive/radioactivity; filed as Kd, often an IC50 or EC50 that approximates it; bounds were set here for any values at or beyond the usual limits of such assays
experimental-setup: source organism: Homo sapiens
Reported Kd values are given for each entry in this list.

>  <residue-codes>
TLENERGEL

>  <system>
HLA-A*02:01

>  <relation-qualifier>
≥

>  <Kd [µM]>
28.6

$$$$
>  <residue-codes>
ILDKVLVHP

>  <system>
HLA-A*02:01

>  <relation-qualifier>
=

>  <Kd [µM]>
4.08

$$$$
>  <residue-codes>
VLLGVKLSGV

>  <system>
HLA-A*02:01

>  <relation-qualifier>
=

>  <Kd [µM]>
0.0047

$$$$
>  <residue-codes>
ALPHAILRL

>  <system>
HLA-A*02:01

>  <relation-qualifier>
=

>  <Kd [µM]>
0.128

$$$$

---

system: HLA-B*83:01
assay-summary: IEDB peptide-MHC binding, purified MHC/competitive/fluorescence; filed as Kd, often an IC50 or EC50 that approximates it; bounds were set here for any values at or beyond the usual limits of such assays
experimental-setup: source organism: Campylobacter jejuni subsp. jejuni NCTC 11168 = ATCC 700819
measure: Kd

>  <residue-codes>
YMKKRYEEF

>  <system>
HLA-B*83:01

>  <measured>
≥ 5 µM

$$$$

---

system: HLA-B*57:01
assay-summary: IEDB peptide-MHC binding, purified MHC/competitive/radioactivity; filed as Kd, often an IC50 or EC50 that approximates it; bounds were set here for any values at or beyond the usual limits of such assays
experimental-setup: source organism: Dengue virus 1 Singapore/S275/1990
pKd: −log10 of the molar value.

>  <residue-codes>
VTARWLWGF

>  <pKd>
8.80

$$$$

---

system: HLA-A*02:01
assay-summary: IEDB peptide-MHC binding, purified MHC/competitive/fluorescence; filed as Kd, often an IC50 or EC50 that approximates it; bounds were set here for any values at or beyond the usual limits of such assays
experimental-setup: source organism: Orthohantavirus sinnombreense

>  <residue-codes>
TEFFMSRKL

>  <system>
HLA-A*02:01

>  <Kd>
≥ 20 µM

$$$$

---

system: HLA-B*08:02
assay-summary: IEDB peptide-MHC binding, purified MHC/direct/fluorescence; filed as Kd, often an IC50 or EC50 that approximates it; bounds were set here for any values at or beyond the usual limits of such assays
experimental-setup: source organism: dengue virus type 3
pKd: −log10 of the molar value.
measure: pKd

>  <residue-codes>
VINWKGKEL

>  <system>
HLA-B*08:02

>  <measure>
pKd

>  <measured>
≤ 4.70

$$$$

---

system: HLA-A*68:02
assay-summary: IEDB peptide-MHC binding, purified MHC/competitive/radioactivity; filed as Kd, often an IC50 or EC50 that approximates it; bounds were set here for any values at or beyond the usual limits of such assays
experimental-setup: source organism: Dengue virus 3 Martinique/1243/1999
measure: Kd (nM)

>  <residue-codes>
MVHQIFGSA

>  <measured>
16.7

$$$$

---

system: HLA-B*27:05
assay-summary: IEDB peptide-MHC binding, purified MHC/direct/fluorescence; filed as Kd, often an IC50 or EC50 that approximates it; bounds were set here for any values at or beyond the usual limits of such assays
experimental-setup: source organism: Rickettsia sibirica
measure: Kd

>  <residue-codes>
ASDRISGIL

>  <system>
HLA-B*27:05

>  <measured>
≥ 20 µM

$$$$
